B1: INTS3 (parent)
chain: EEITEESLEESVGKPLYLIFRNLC

# Variants of: B1
# protocol-description: protein stability index of a GFP-peptide fusion (GPS, HEK-293T) (PSI 1-6); higher = more stable;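 further: lentivirally expressed fusions sorted by FACS into six bins by GFP to DsRed ratio, PSI derived from sequencing read proportions per bin multiplied by bin number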
# condition-summary: c terminus: a fixed tail appended
I'd appreciate it if you could supply protein stability index values for the items below.
Please reply with the number alone, leaving off any unit.

Sample E9R ; protein stability index observed: 2.41

Sample G13S ; protein stability index observed: 2.36

Sample S7G ; protein stability index observed: 2.75

Sample S7R ; protein stability index observed: 2.98

Sample G13Q ; protein stability index observed: 3.11

Sample S11D ; protein stability index observed: 3.03

Sample I19E ; protein stability index observed: 3.9

Sample Y17R ; protein stability index observed: 2.61

Sample S11E ; protein stability index observed: 2.55

Sample E2C ; protein stability index observed: 2.48

Sample P15I ; protein stability index observed: 2.17

Sample L16D ; protein stability index observed: 4.26

Sample T4P ; protein stability index observed: 2.77

Sample L18F ; protein stability index observed: 2.3

Sample P15G ; protein stability index observed: 2

Sample K14I ; protein stability index observed: 2.78

Sample S7Q ; protein stability index observed: 2.83

Sample E1M ; protein stability index observed: 2.45

Sample I3G ; protein stability index observed: 3.13

Sample V12F ; protein stability index observed: 2.56

Sample G13A ; protein stability index observed: 2.88

Sample E6A ; protein stability index observed: 2.01
